Hi there, I'd appreciate the recorded MIC for every entry that follows.
Test system: E. faecalis GC 2267
Assay Details: MIC, broth microdilution
Condition Parameters: Enterococcus faecalis, GC2267, read-out: MINIMAL INHIBITORY CONCENTRATION MIC, pre-incubated in Mouse Serum
Give bare numbers, in µg/mL.

{"Compound": "CCCN(CC(=O)Nc1cc(N(C)C)c2c(c1O)C(=O)C1=C(O)[C@]3(O)C(=O)C(C(N)=O)=C(O)[C@@H](N(C)C)[C@@H]3C[C@@H]1C2)C(=O)OCOC(=O)c1cc(C)cc(C)c1 [Example 26]", "Unit Info": "µg/mL", "MIC": 2}

For each of the items listed, what is its MIC?
1. CN(C)c1cc(NC(=O)CN(C(=O)OCOC(=O)C2CCCC2)C(C)(C)C)c(O)c2c1C[C@H]1C[C@H]3[C@H](N(C)C)C(O)=C(C(N)=O)C(=O)[C@@]3(O)C(O)=C1C2=O [Example 46]
2. CCCCN(CC(=O)Nc1cc(N(C)C)c2c(c1O)C(=O)C1=C(O)[C@]3(O)C(=O)C(C(N)=O)=C(O)[C@@H](N(C)C)[C@@H]3C[C@@H]1C2)C(=O)OCOC(=O)c1cccs1 [Example 23]
3. CN(C)c1cc(NC(=O)CN(C(=O)OCOC(=O)c2ccc(C(C)(C)C)cc2)C(C)(C)C)c(O)c2c1C[C@H]1C[C@H]3[C@H](N(C)C)C(O)=C(C(N)=O)C(=O)[C@@]3(O)C(O)=C1C2=O [Example 43]

1. 0.5
2. 2
3. 0.5

----------
Hi there, I'd appreciate the recorded MIC for every entry that follows.
Tested on: E. coli GC 2272
Assay Details: MIC, broth microdilution
Condition Parameters: Escherichia coli, GC2272, read-out: MINIMAL INHIBITORY CONCENTRATION MIC, pre-incubated in Mouse Serum
Give bare numbers, in µg/mL.

Would you please look over these solved cases?
{"Compound": "CCCN(CC(=O)Nc1cc(N(C)C)c2c(c1O)C(=O)C1=C(O)[C@]3(O)C(=O)C(C(N)=O)=C(O)[C@@H](N(C)C)[C@@H]3C[C@@H]1C2)C(=O)OCOC(=O)c1ccc(C(C)(C)C)cc1", "Number": 0.5}
{"Compound": "CCCN(CC(=O)Nc1cc(N(C)C)c2c(c1O)C(=O)C1=C(O)[C@]3(O)C(=O)C(C(N)=O)=C(O)[C@@H](N(C)C)[C@@H]3C[C@@H]1C2)C(=O)OCOC(=O)c1ccsc1", "Number": 0.5}
{"Compound": "CCCN(CC(=O)Nc1cc(N(C)C)c2c(c1O)C(=O)C1=C(O)[C@]3(O)C(=O)C(C(N)=O)=C(O)[C@@H](N(C)C)[C@@H]3C[C@@H]1C2)C(=O)OCOC(=O)c1cccs1", "Number": 2}

We now examine a further compound.
State the recorded MIC for this entry: CC(C)C(=O)OCOC(=O)N(CC(=O)Nc1cc(N(C)C)c2c(c1O)C(=O)C1=C(O)[C@]3(O)C(=O)C(C(N)=O)=C(O)[C@@H](N(C)C)[C@@H]3C[C@@H]1C2)C(C)(C)C
1

----------
Hi there, I'd appreciate the recorded MIC for every entry that follows.
Tested on: E. coli GC 4559
Assay Details: MIC, broth microdilution
Condition Parameters: Escherichia coli, GC4559, read-out: MINIMAL INHIBITORY CONCENTRATION MIC, pre-incubated in Mouse Serum
Report the figure along with its unit, number first.

Would you please look over these solved cases?
{"Compound": "CCCN(CC(=O)Nc1cc(N(C)C)c2c(c1O)C(=O)C1=C(O)[C@]3(O)C(=O)C(C(N)=O)=C(O)[C@@H](N(C)C)[C@@H]3C[C@@H]1C2)C(=O)OCOC(=O)c1ccc(-c2ccccc2)cc1", "Target Or Test System": "E. coli GC 4559", "MIC": "1 µg/mL"}
{"Compound": "CN(C)c1cc(NC(=O)CN(C(=O)OCOC(=O)c2ccc(C(C)(C)C)cc2)C(C)(C)C)c(O)c2c1C[C@H]1C[C@H]3[C@H](N(C)C)C(O)=C(C(N)=O)C(=O)[C@@]3(O)C(O)=C1C2=O", "Target Or Test System": "E. coli GC 4559", "MIC": "0.5 µg/mL"}
{"Compound": "CN(C)c1cc(NC(=O)CN(C(=O)OCOC(=O)C2CCCC2)C(C)(C)C)c(O)c2c1C[C@H]1C[C@H]3[C@H](N(C)C)C(O)=C(C(N)=O)C(=O)[C@@]3(O)C(O)=C1C2=O", "Target Or Test System": "E. coli GC 4559", "MIC": "1 µg/mL"}

We now examine a further compound.
State the recorded MIC for this entry: CCCCN(CC(=O)Nc1cc(N(C)C)c2c(c1O)C(=O)C1=C(O)[C@]3(O)C(=O)C(C(N)=O)=C(O)[C@@H](N(C)C)[C@@H]3C[C@@H]1C2)C(=O)OCOC(=O)c1ccc(-c2ccccc2)cc1
1 µg/mL

----------
Hi there, I'd appreciate the recorded MIC for every entry that follows.
Test system: Staph.
Assay Details: Range of MIC for Staph. strains, including MRSA
Condition Parameters: Staphylococcus aureus, MRSA, read-out: Minimum inhibitory concentration (MIC), Staph. (mouse serum)

Would you please look over these solved cases?
{"Compound": "CCCCN(CC(=O)Nc1cc(N(C)C)c2c(c1O)C(=O)C1=C(O)[C@]3(O)C(=O)C(C(N)=O)=C(O)[C@@H](N(C)C)[C@@H]3C[C@@H]1C2)C(=O)OCOC(=O)c1cccs1", "Target Or Test System": "Staph.", "Result": "0.25 to 4 µg/mL"}
{"Compound": "CCCCN(CC(=O)Nc1cc(N(C)C)c2c(c1O)C(=O)C1=C(O)[C@]3(O)C(=O)C(C(N)=O)=C(O)[C@@H](N(C)C)[C@@H]3C[C@@H]1C2)C(=O)OCOC(=O)C12CC3CC(CC(C3)C1)C2", "Target Or Test System": "Staph.", "Result": "1 to 4 µg/mL"}
{"Compound": "CCCCN(CC(=O)Nc1cc(N(C)C)c2c(c1O)C(=O)C1=C(O)[C@]3(O)C(=O)C(C(N)=O)=C(O)[C@@H](N(C)C)C3CC1C2)C(=O)OCOC(=O)C(C)C (some centres unmarked)", "Target Or Test System": "Staph.", "Result": "1 to 4 µg/mL"}
{"Compound": "CCCCN(CC(=O)Nc1cc(N(C)C)c2c(c1O)C(=O)C1=C(O)[C@]3(O)C(=O)C(C(N)=O)=C(O)[C@@H](N(C)C)C3CC1C2)C(=O)OCOC(=O)c1ccc(C)cc1 (some centres unmarked)", "Target Or Test System": "Staph.", "Result": "1 to 4 µg/mL"}

We now examine a further compound.
State the recorded MIC for this entry: CCCCN(CC(=O)Nc1cc(N(C)C)c2c(c1O)C(=O)C1=C(O)[C@]3(O)C(=O)C(C(N)=O)=C(O)[C@@H](N(C)C)[C@@H]3C[C@@H]1C2)C(=O)OCOC(=O)CC1CCCC1
0.5 to 2 µg/mL

----------
Test system: E. coli
Assay Details: In vitro activity (MIC) against E. coli (Table 7)
Type: cell-based
Condition Parameters: Escherichia coli
Result Type: MIC (µg/mL)
One number for each entry, in µg/mL.

{"Compound": "CC(C)CC(=O)OCOC(=O)N(CC(=O)Nc1cc(N(C)C)c2c(c1O)C(=O)C1=C(O)[C@]3(O)C(=O)C(C(N)=O)=C(O)[C@@H](N(C)C)[C@@H]3C[C@@H]1C2)C(C)(C)C", "Number": 32}

State the recorded MIC for this entry: CCC(=O)OCOC(=O)N(CC(=O)Nc1cc(N(C)C)c2c(c1O)C(=O)C1=C(O)[C@]3(O)C(=O)C(C(N)=O)=C(O)[C@@H](N(C)C)[C@@H]3C[C@@H]1C2)C(C)(C)C
64

----------
Hi there, I'd appreciate the recorded MIC for every entry that follows.
Test system: Staph.
Assay Details: Range of MIC for Staph. strains, including MRSA
Condition Parameters: Staphylococcus aureus, MRSA, read-out: Range of MIC, Staph (Mouse Serum)

{"Compound": "Cc1cc(C)cc(C(=O)OCOC(=O)N(CC(=O)Nc2cc(N(C)C)c3c(c2O)C(=O)C2=C(O)[C@]4(O)C(=O)C(C(N)=O)=C(O)[C@@H](N(C)C)[C@@H]4C[C@@H]2C3)C(C)(C)C)c1", "MIC": "0.25 to 2 µg/mL"}

We now examine a further molecule.
I'm curious: which MIC was measured for CCCCCCCCCCCCOc1ccc(C(=O)OCOC(=O)N(CC(=O)Nc2cc(N(C)C)c3c(c2O)C(=O)C2=C(O)[C@]4(O)C(=O)C(C(N)=O)=C(O)[C@@H](N(C)C)[C@@H]4C[C@@H]2C3)C(C)(C)C)cc1 tested on Staph.?
16 to 64 µg/mL

----------
System: E. coli GC 4560
Assay Details: MIC, broth microdilution
Condition Parameters: Escherichia coli, GC4560, read-out: MINIMAL INHIBITORY CONCENTRATION MIC, Water
Result Type: MIC (µg/mL)
Give bare numbers, in µg/mL.

Would you please look over these solved cases?
{"Compound": "Cc1cc(C)cc(C(=O)OCOC(=O)N(CC(=O)Nc2cc(N(C)C)c3c(c2O)C(=O)C2=C(O)[C@]4(O)C(=O)C(C(N)=O)=C(O)[C@@H](N(C)C)[C@@H]4C[C@@H]2C3)C(C)(C)C)c1", "MIC, µg/mL": 32}
{"Compound": "CN(C)c1cc(NC(=O)CN(C(=O)OCOC(=O)C2CCCCC2)C(C)(C)C)c(O)c2c1C[C@H]1C[C@H]3[C@H](N(C)C)C(O)=C(C(N)=O)C(=O)[C@@]3(O)C(O)=C1C2=O", "MIC, µg/mL": 4}
{"Compound": "CCC(=O)OCOC(=O)N(CC(=O)Nc1cc(N(C)C)c2c(c1O)C(=O)C1=C(O)[C@]3(O)C(=O)C(C(N)=O)=C(O)[C@@H](N(C)C)[C@@H]3C[C@@H]1C2)C(C)(C)C", "MIC, µg/mL": 1}

We now examine a further compound.
State the recorded MIC for this entry: CCCCOC(=O)N(CC(=O)Nc1cc(N(C)C)c2c(c1O)C(=O)C1=C(O)[C@]3(O)C(=O)C(C(N)=O)=C(O)[C@@H](N(C)C)[C@@H]3C[C@@H]1C2)C(C)(C)C
4
